assay: protein stability index of a GFP-peptide fusion (GPS, HEK-293T) (PSI 1-6); higher = more stable; conditions: treatment: DMSO; c terminus: a fixed tail appended;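 further: 24-mer peptide tiles fused after GFP, lentivirally expressed, FACS-sorted into six equal bins by GFP/DsRed ratio, decoded by Illumina sequencing, PSI is the read-weighted mean bin number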
Respond with 1 (yes) for protein stability index values of 3 and above, 0 (no) for values below.

These recorded examples may help you get a feel for the data.
- SEQUENCE DATA: "GFGVLRLDADAAQRVVYLEGCGPP [TSPAN10]"
  GROUP LABEL: "0 (no)"
- SEQUENCE DATA: "QSHPHLVAEAFRALASAQCPQFGI [SPOPL]"
  GROUP LABEL: "0 (no)"
- SEQUENCE DATA: "QDSKEMKQLLDSKIGFEIGIENEE [ZNF449]"
  GROUP LABEL: "1 (yes)"
- SEQUENCE DATA: "IDKFGFIVGSQGAEGALEEVPLEV [TBC1D10A]"
  GROUP LABEL: "1 (yes)"
- SEQUENCE DATA: "KRNNFYIKIRPGEFEQFESTIGFK [EPB41L3]"
  GROUP LABEL: "0 (no)"

Let us examine a further case.
Q: Given the entry MDDSTEREQSRLTSCLKKREEMKL [TNFSF13B] , answer whether its protein stability index meets or surpasses 3.
Result: 1 (yes)

* * *

test: protein stability index of a GFP-peptide fusion (GPS, HEK-293T) (PSI 1-6); higher = more stable; conditions: treatment: MLN4924 1 uM, 8 h; c terminus: a fixed tail appended
Respond with condition met for protein stability index values of 3 and above, condition not met for values below.

These recorded examples may help you get a feel for the data.
- SEQUENCE DATA: "FSVLEGEKNNHRAKDLRAPPEQGK [SOAT1]"
  GROUP LABEL: "condition met"
- SEQUENCE DATA: "PKTQACSGSESPSDSGKDLPEPSK [MYCL]"
  GROUP LABEL: "condition met"
- SEQUENCE DATA: "ELADARRALDDTARERAKLQIELG [LMNB1]"
  GROUP LABEL: "condition met"
- SEQUENCE DATA: "AGIALYSHEDVCVFKCSVSRETEC [CARM1]"
  GROUP LABEL: "condition not met"
- SEQUENCE DATA: "GKLKCDICGIICIGPNVLMVHKRS [IKZF1]"
  GROUP LABEL: "condition not met"

Q: Given the entry ELKCPVCGSFYREPIILPCSHNLC [TRIM9] , answer whether its protein stability index meets or surpasses 3.
Result: condition met

* * *

assay: protein stability index of a GFP-peptide fusion (GPS, HEK-293T) (PSI 1-6); higher = more stable; details: treatment: MLN4924 1 uM, 8 h; c terminus: a fixed tail appended
// classify(record): look up protein stability index in ranges lower band: < 3; central band: ≥ 3 and < 4; upper band: ≥ 4

- SEQUENCE DATA: "RRRIEEERLRLEQQKQQIMAALNS [ACBD3]"
  GROUP LABEL: "upper band"
- SEQUENCE DATA: "LDLMPRLMTSKPAEVVKILQTMLR [INTS4]"
  GROUP LABEL: "lower band"
- SEQUENCE DATA: "TFNRWGTLLAVGCNDGRIVIWDFL [RBBP5]"
  GROUP LABEL: "lower band"
- SEQUENCE DATA: "AALAVNTSILSRLPPEALTAPSGG [RNF208]"
  GROUP LABEL: "central band"
- SEQUENCE DATA: "KLHKSQLSQALNGLSDRAKEAKEF [TRIM9]"
  GROUP LABEL: "upper band"

Q: Bin? PLDFEAYSAAALQEAMKRLRGAKA [FCHO1]
Result: central band

* * *

test: protein stability index of a GFP-peptide fusion (GPS, HEK-293T) (PSI 1-6); higher = more stable; conditions: treatment: DMSO; c terminus: a fixed tail appended
Measured protein stability index, listed per entry.
Answer using only a numeral; do not append any unit.

Known results for sequences:
- SEQUENCE DATA: "DRFSGETSAAALSPMSAATLGGLN [SMTNL2]"
  protein stability index: 4.46
- SEQUENCE DATA: "LKLMVNVCGHTLCESCVDLLFVRG [MNAT1]"
  protein stability index: 3.35
- SEQUENCE DATA: "RMYPFQIHSIALSTFASLIGPFGG [CDS2]"
  protein stability index: 2.79
- SEQUENCE DATA: "EIFRRHFRQLCYQETPGPREALTR [ZSCAN9]"
  protein stability index: 2.51
- SEQUENCE DATA: "RFRFGQDQLLLATGLNNGRIKIWD [WSB1]"
  protein stability index: 2.25

Given item NWLQVSFTAKHANKVKVLDAPVPD [FSD1] , the value recorded as its protein stability index is 3.02

Given item ASFDRRGEYIYTGNAKGKILVLKT [RBBP5] , the value recorded as its protein stability index is 2.02

Given item DGAGKTPTLGGGFHVNLGKESRAQ [BRF1] , the value recorded as its protein stability index is 4.63

Given item SQLRLVCKRMDLVCQRMLNQGFLK [FBXO28] , the value recorded as its protein stability index is 2.38

* * *

Measured protein stability index, listed per entry.
assay: protein stability index of a GFP-peptide fusion (GPS, HEK-293T) (PSI 1-6); higher = more stable; details: treatment: DMSO; c terminus: a fixed tail appended

Known results for sequences:
- SEQUENCE DATA: "FSHTLVSLSLFGCTNIFYEEENPG [ZER1]"
  RESULT: 2.65
- SEQUENCE DATA: "VQSIELQRPRFITSGGSNIIYVAS [VPS39]"
  RESULT: 2.35
- SEQUENCE DATA: "LNPQLVQPAKKPLLWSDPADNKIV [ESRRG]"
  RESULT: 3.78
- SEQUENCE DATA: "SALASDRFNLILADTNSDRLFTVN [DCAF4]"
  RESULT: 2.61
- SEQUENCE DATA: "EPPTEAASREENQAGPEATTSDPQ [PALM]"
  RESULT: 5.61
- SEQUENCE DATA: "CILLSALGYLLLGAATNVFLFVLA [MFSD9]"
  RESULT: 2.53
- SEQUENCE DATA: "NLGVENMNHYKKTTLEIHNTEERQ [PTPN9]"
  RESULT: 4.4
- SEQUENCE DATA: "LGVLHPNTKLRQAERLFENQLVGP [APMAP]"
  RESULT: 2.57
- SEQUENCE DATA: "VTIKHVACGDFFTACLTDRGIIMT [NEK8]"
  RESULT: 2.96
- SEQUENCE DATA: "EKEEDHAPEFIKVRENLRRIATLT [FAM107A]"
  RESULT: 2.58

Given item YSIDQEFLKEYFPIEVVTEGLLNT [NLN] , the value recorded as its protein stability index is 2.79

Given item KPPMMPQAQPAIPRPNRLFLRQLR [C2CD2L] , the value recorded as its protein stability index is 3.22

Given item ATIENAQPILQIDNARLAADDFRT [KRT16] , the value recorded as its protein stability index is 4.41

Given item MERPDKAALNALQPPEFRNESSLA [VMA21] , the value recorded as its protein stability index is 4.77

Given item CLLTYGMTSSSAYYYTKVMSELFL [PKD2L1] , the value recorded as its protein stability index is 3.23

Given item QDGVLDLSTKKSPCAGSTSLSHSP [LCOR] , the value recorded as its protein stability index is 4.95

Given item CPATWGPSVEQAADSLDFDETFLA [FOXJ1] , the value recorded as its protein stability index is 4.56

Given item TMQSMFAKNFHVKAVMKTSVLLSW [PTPRD] , the value recorded as its protein stability index is 2.48

Given item LEHRLNEMERTQAQLRDAVQSLQL [RASAL3] , the value recorded as its protein stability index is 4.16

Given item TDRDEGANGEVTYSFRKLPDTQLL [PCDHGA10] , the value recorded as its protein stability index is 4.44

* * *

assay: protein stability index of a GFP-peptide fusion (GPS, HEK-293T) (PSI 1-6); higher = more stable; details: treatment: DMSO; c terminus: a fixed tail appended
Measured protein stability index, listed per entry.

Known results for sequences:
- SEQUENCE DATA: "TQIPADEDTQTDADSSAQAAAQAP [TAF7L]"
  protein stability index: 5.49
- SEQUENCE DATA: "QYHHSKIRNRGYNLIYRSTRHLKR [TMEM192]"
  protein stability index: 3.07
- SEQUENCE DATA: "DISMEIPQEFQKTVSTMYYLWMCS [SCAMP3]"
  protein stability index: 2.28
- SEQUENCE DATA: "KLHKSQLSQALNGLSDRAKEAKEF [TRIM9]"
  protein stability index: 4.11
- SEQUENCE DATA: "RARVKEKFSPEAFTEQLYRYVTKL [ALG2]"
  protein stability index: 2.36
- SEQUENCE DATA: "LGACVRTAVAQGGWRSLWLGWGPT [SLC25A39]"
  protein stability index: 2.07

Given item LDEFARENIDSLYNVNLSKGRAAL [SCNN1D] , the value recorded as its protein stability index is 3.82

Given item QTWKLFSSHMNIDITDDCICDLAR [PPEF2] , the value recorded as its protein stability index is 2.25

Given item QDQPSEAATGGATLAQTISEAAIG [HDAC6] , the value recorded as its protein stability index is 5.09

Given item VRQPILQYRWDMMHRLGEPQARMR [BEX1] , the value recorded as its protein stability index is 2.95

Given item SYFSGQGSDTGASLKLASSELERL [JUNB] , the value recorded as its protein stability index is 4.18

Given item ELKCPVCGSFYREPIILPCSHNLC [TRIM9] , the value recorded as its protein stability index is 4.1

Given item GSDYVNANYIDGYRKQNAYIATQG [PTPRD] , the value recorded as its protein stability index is 3.51

Given item QSGCLYRLRALGERHTMDLTVEGF [TMEM120A] , the value recorded as its protein stability index is 2.12
